Target: T1, Human BSSL (bile salt-stimulated lipase), native (human, UniProt P19835 21-753)
T1 construct: Native full-length protein purified from human milk (Astra Hässle AB); also called hBSSL; non-biotinylated human BSSL
T1 sequence: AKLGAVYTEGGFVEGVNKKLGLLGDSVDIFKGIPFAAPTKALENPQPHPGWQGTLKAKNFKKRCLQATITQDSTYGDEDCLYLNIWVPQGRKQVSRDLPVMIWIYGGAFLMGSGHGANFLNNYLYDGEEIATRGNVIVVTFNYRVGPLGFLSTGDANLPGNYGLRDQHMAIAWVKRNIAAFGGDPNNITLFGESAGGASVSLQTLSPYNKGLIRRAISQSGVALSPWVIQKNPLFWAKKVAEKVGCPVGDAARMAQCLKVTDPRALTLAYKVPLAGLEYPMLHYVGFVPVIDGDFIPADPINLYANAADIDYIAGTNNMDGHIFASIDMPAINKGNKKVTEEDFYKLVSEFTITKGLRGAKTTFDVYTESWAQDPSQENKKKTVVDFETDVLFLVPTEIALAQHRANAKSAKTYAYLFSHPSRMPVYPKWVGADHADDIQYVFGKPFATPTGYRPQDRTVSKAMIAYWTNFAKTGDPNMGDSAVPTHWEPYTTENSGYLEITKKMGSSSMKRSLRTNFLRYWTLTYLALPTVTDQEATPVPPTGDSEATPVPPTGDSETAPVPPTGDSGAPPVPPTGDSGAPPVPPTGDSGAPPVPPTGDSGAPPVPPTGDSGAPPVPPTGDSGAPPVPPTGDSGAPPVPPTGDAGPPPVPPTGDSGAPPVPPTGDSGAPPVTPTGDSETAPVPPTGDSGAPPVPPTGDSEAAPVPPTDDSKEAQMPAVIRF
Assay: SPR single cycle kinetics, hIgG4 S228P captured by anti-Fab

>  <Binder>
S-SL048-40 hIgG4 S228P (antibody, V domains shown, Tested as human IgG4 S228P) VH: QVQLVQSGAEVKKPGASVKVSCKASGYTFTSYNMHWVRQAPGQGLEWIGVINPSDGATSYAQKFQGRVTMTRDTSTSTVYMELSSLRSEDTAVYYCARDYYGSSPLGYWGQGTLVTVSS VL: DIQMTQSPSSLSASVGDRVTITCRASSSISYLNWYQQKPGKAPKLLIYAASRLPSGVPSRFSGSGSGTDFTLTISSLQPEDFATYYCQQRSSSPTFGQGTKLEIK

>  <Kd (nM)>
1

$$$$
>  <Binder>
S-SL048-131 hIgG4 S228P (antibody, V domains shown, Tested as human IgG4 S228P) VH: QVQLVQSGAEVKKPGASVKVSCKASGYTFTSYNMHWVRQAPGQGLEWIGVINPGDGATSYAQKFKGRVTMTRDTSTSTVYMELSSLRSEDTAVYYCARDYYGSSPLGYWGQGTLVTVSS VL: DIQMTQSPSSLSASVGDRVTITCRASPSISYLNWYQQKPGKAPKLLIYAASKLASGVPSRFSGSGSGTDFTLTISSLQPEDFATYYCHQRSSSPTFGQGTKLEIK

>  <Kd (nM)>
2.7

$$$$
>  <Binder>
S-SL048-112 hIgG4 S228P (antibody, V domains shown, Tested as human IgG4 S228P) VH: QVQLVQSGAEVKKPGASVKVSCKASGYTFTSYNMHWVRQAPGQGLEWIGIIYPGDGATSYNQKFKGRVTMTRDTSTSTVYMELSSLRSEDTAVYYCARDYYGSSPLGYWGQGTLVTVSS VL: DIQMTQSPSSLSASVGDRVTITCRASSSISYMHWYQQKPGKAPKLLIYATSRLASGVPSRFSGSGSGTDFTLTISSLQPEDFATYYCHQRSSTPTFGQGTKLEIK

>  <Kd (nM)>
5

$$$$
